Give IC50 for every item shown.
system: amyloid-beta (1-42) peptide; test: ELISA assay of amyloid-beta (1-42) in conditioned media of 2B7 cells; type: cell-based; conditions: 5 h, Aβ-42, 2B7 cells, 5 hours; read-out: IC50 range

*Q* So what's the measured IC50 for this one? "CC(=O)O[C@@H]([C@H]1C[C@@H](C)[C@H]2[C@H](O1)[C@H](O)[C@@]1(C)[C@@H]3CC[C@H]4C(C)(C)[C@@H](O[C@H]5CN(C6COC6)CCO5)CC[C@@]45C[C@@]35CC[C@]21C)C(C)(C)O"
*A* ≤ 1000 nM

*Q* So what's the measured IC50 for this one? "C[C@@H]1C[C@H]([C@H](O)C(C)(C)O)O[C@H]2[C@H]1[C@@]1(C)CC[C@@]34C[C@@]35CC[C@H](O[C@H]3CN(CC(N)=O)CCO3)C(C)(C)[C@@H]5CC[C@H]4[C@]1(C)[C@H]2O"
*A* > 10000 nM

Batch request: IC50 per item, same order as input.
1. CC(=O)O[C@@H]([C@H]1C[C@@H](C)C2C(O1)[C@H](O)[C@@]1(C)[C@@H]3CC[C@H]4C(C)(C)[C@H](O)CC[C@@]45C[C@@]35CC[C@]21C)C(C)(C)O (stereo partly shown) [drawing 925]
2. CC(=O)O[C@@H]([C@H]1C[C@@H](C)[C@H]2[C@H](O1)[C@H](O)[C@@]1(C)[C@@H]3CC[C@H]4C(C)(C)C(OC(N)=O)CC[C@@]45C[C@@]35CC[C@]21C)C(C)(C)O (stereo partly shown) [drawing 964]

*A*
1: ≤ 1000 nM; 2: ≤ 1000 nM

###

system: Aβ-38; test: MSD Human (6E10) Ab 3-PLEX elisa, conditioned media of 2B7 cells: Aβ-38; type: cell-based; conditions: Homo sapiens; Aβ-38 (superscript a); read-out: 50% reduction value
pIC50: −log10 of the molar value.
experimental-readout: pIC50

Example results:
*Q* So what's the measured pIC50 for this one? CC(=O)N1CCN(C(=O)OC2CC[C@]34C[C@]35CC[C@]3(C)[C@@H]6C(OC([C@H](OC(=O)N7CCC7)C(C)C)C[C@H]6C)[C@H](O)[C@@]3(C)C5CC[C@H]4C2(C)C)CC1 (stereo partly drawn)
*A* > 6.00

*Q* So what's the measured pIC50 for this one? CC(=O)O[C@@H]([C@H]1C[C@@H](C)[C@H]2[C@H](O1)[C@H](O)[C@@]1(C)[C@@H]3CC[C@H]4C(C)(C)C(OC(N)=O)CC[C@@]45C[C@@]35CC[C@]21C)C(C)(C)O (stereo partly drawn) [drawing 1201]
*A* > 6.00

***
*Q* So what's the measured pIC50 for this one? CC(C)CO[C@@H](C1C[C@@H](C)[C@H]2C(O1)[C@H](O)[C@@]1(C)C3CC[C@H]4C(C)(C)C(OC(=O)NC5CN(C=O)C5)CC[C@@]45C[C@@]35CC[C@]21C)C(C)(C)O (stereo partly drawn)
*A* 5.00 to 6.00

###

Give pIC50 for every item shown.
test system: Aβ-38; assay: MSD Human (6E10) Ab 3-PLEX elisa, conditioned media of 2B7 cells: Aβ-38; assay type: cell-based; details: Homo sapiens; Aβ-38 (superscript a); read-out: 50% reduction value
pIC50: −log10 of the molar value.

Example results:
*Q* So what's the measured pIC50 for this one? C=C(C)CO[C@@H](C1C[C@@H](C)[C@H]2C(O1)[C@H](O)[C@@]1(C)C3CC[C@H]4C(C)(C)C(O[C@H]5CN(C6COC6)CCO5)CC[C@@]45C[C@@]35CC[C@]21C)C(C)(C)O (stereo partly drawn)
*A* > 6.00

*Q* So what's the measured pIC50 for this one? CCO[C@@H](C1C[C@@H](C)[C@H]2C(O1)[C@H](O)[C@@]1(C)C3CC[C@H]4C(C)(C)C(OC(=O)NC5CCNC5=O)CC[C@@]45C[C@@]35CC[C@]21C)C(C)(C)O (stereo partly drawn) [drawing 1289]
*A* > 6.00

*Q* So what's the measured pIC50 for this one? CC(=O)O[C@@H]([C@H]1C[C@@H](C)C2C(O1)[C@H](O)[C@@]1(C)[C@@H]3CC[C@H]4C(C)(C)[C@@H](OC(=O)c5cccnc5)CC[C@@]45C[C@@]35CC[C@]21C)C(C)(C)O (stereo partly drawn) [drawing 1200]
*A* > 6.00

*Q* So what's the measured pIC50 for this one? CC(C)[C@@H](OC(=O)N1CCC1)C1C[C@@H](C)[C@H]2C(O1)[C@H](O)[C@@]1(C)C3CC[C@H]4C(C)(C)C(OC(=O)N5CC(C(=O)O)C5)CC[C@@]45C[C@@]35CC[C@]21C (stereo partly drawn)
*A* > 6.00

*Q* So what's the measured pIC50 for this one? CCO[C@@H](C1C[C@@H](C)[C@H]2C(O1)[C@H](O)[C@@]1(C)C3CC[C@H]4C(C)(C)C(O[C@H]5CN(CCC(=O)O)CCO5)CC[C@@]45C[C@@]35CC[C@]21C)C(C)(C)O (stereo partly drawn)
*A* > 6.00

*Q* So what's the measured pIC50 for this one? C[C@@H]1CC(COC(N)=O)OC2[C@H]1[C@@]1(C)CC[C@@]34C[C@@]35CC[C@H](O)C(C)(C)[C@@H]5CCC4[C@]1(C)[C@H]2O (stereo partly drawn)
*A* < 5.00

Batch request: pIC50 per item, same order as input.
1. CCO[C@@H](C1C[C@@H](C)[C@H]2C(O1)[C@H](O)[C@@]1(C)C3CC[C@H]4C(C)(C)C(O[C@H]5CN(CCCC(=O)O)CCO5)CC[C@@]45C[C@@]35CC[C@]21C)C(C)(C)O (stereo partly drawn)
2. CCNC(=O)O[C@H](C(C)C)C1C[C@@H](C)[C@H]2C(O1)[C@H](O)[C@@]1(C)C3CC[C@H]4C(C)(C)C(OC(=O)NC5CNC5)CC[C@@]45C[C@@]35CC[C@]21C (stereo partly drawn)
3. CC(=O)OC(C)(C)C1C[C@@H](C)[C@H]2C(O1)[C@H](O)[C@@]1(C)C3CC[C@H]4C(C)(C)[C@@H](O)CC[C@@]45C[C@@]35CC[C@]21C (stereo partly drawn)
4. CO[C@@H]([C@H]1C[C@@H](C)[C@H]2[C@H](O1)[C@H](OC)[C@@]1(C)C3CC[C@H]4C(C)(C)[C@@H](O[C@H]5CN(C6COC6)CCO5)CC[C@@]45C[C@@]35CC[C@]21C)C(C)(C)O (stereo partly drawn)
5. CC(C)OC(C)(C)[C@H](O)C1C[C@@H](C)[C@H]2C(O1)[C@H](O)[C@@]1(C)C3CC[C@H]4C(C)(C)C(O)CC[C@@]45C[C@@]35CC[C@]21C (stereo partly drawn)
6. CNC(=O)O[C@H](C(C)C)C1C[C@@H](C)[C@H]2C(O1)[C@H](O)[C@@]1(C)C3CC[C@H]4C(C)(C)[C@@H](O)CC[C@@]45C[C@@]35CC[C@]21C (stereo partly drawn)
7. CNC(=O)OCC1C[C@@H](C)[C@H]2C(O1)[C@H](O)[C@@]1(C)C3CC[C@H]4C(C)(C)[C@@H](O)CC[C@@]45C[C@@]35CC[C@]21C (stereo partly drawn)
8. CC(C)C(=O)N1CCOC(OC2CC[C@]34C[C@]35CC[C@]3(C)[C@@H]6C(OC([C@H](OC(=O)N7CCC7)C(C)C)C[C@H]6C)[C@H](O)[C@@]3(C)C5CC[C@H]4C2(C)C)C1 (stereo partly drawn)

*A*
1: 5.00 to 6.00; 2: > 6.00; 3: 5.00 to 6.00; 4: > 6.00; 5: 5.00 to 6.00; 6: 5.00 to 6.00; 7: 5.00 to 6.00; 8: > 6.00

###

Give pIC50 for every item shown.
system: Aβ-40; assay: MSD Human (6E10) Ab 3-PLEX elisa, conditioned media of 2B7 cells: Aβ-40; type: cell-based; conditions: Aβ-40 (superscript b); read-out: IC50 range
pIC50: −log10 of the molar value.

Example results:
*Q* So what's the measured pIC50 for this one? CC(=O)OC(C1CC(C)C2C(O1)C(O)C1(C)C3CCC4C(C)(C)C(OC(=O)C5CNC5)CCC45CC35CCC21C)C(C)(C)O (stereo not drawn) [drawing 1205]
*A* 5.00 to 6.00

*Q* So what's the measured pIC50 for this one? CC(=O)N(Cc1cc(F)cc(F)c1)CC1CC(C)C2C(O1)C(O)C1(C)C3CCC4C(C)(C)C(OC(=O)C5CNC5)CCC45CC35CCC21C (stereo not drawn) [drawing 1215]
*A* 5.00 to 6.00

*Q* So what's the measured pIC50 for this one? CC1CC(C(OC(=O)CC2CC2)C(C)(C)O)OC2C1C1(C)CCC34CC35CCC(OC3CN(C6COC6)CCO3)C(C)(C)C5CCC4C1(C)C2O (stereo not drawn)
*A* 5.00 to 6.00

Batch request: pIC50 per item, same order as input.
1. CC1CC(C(OC(=O)C2CCOCC2)C(C)(C)O)OC2C1C1(C)CCC34CC35CCC(OC3CN(C6COC6)CCO3)C(C)(C)C5CCC4C1(C)C2O (stereo not drawn)
2. CC(=O)OCC1CC(C)C2C(O1)C(O)C1(C)C3CCC4C(C)(C)C(OC(=O)c5cccnc5)CCC45CC35CCC21C (stereo not drawn) [drawing 1210]
3. CCO[C@@H](C1C[C@@H](C)[C@H]2C(O1)[C@H](O)[C@@]1(C)C3CC[C@H]4C(C)(C)C(OC(=O)NC5CCNC5=O)CC[C@@]45C[C@@]35CC[C@]21C)C(C)(C)O (stereo partly drawn) [drawing 1290]
4. CCC(=O)OC(C1CC(C)C2C(O1)C(O)C1(C)C3CCC4C(C)(C)C(OC5CN(C6COC6)CCO5)CCC45CC35CCC21C)C(C)(C)O (stereo not drawn) [drawing 1209]
5. CCO[C@@H](C1C[C@@H](C)[C@H]2C(O1)[C@H](O)[C@@]1(C)C3CC[C@H]4C(C)(C)C(OC(=O)NC5CCNC5=O)CC[C@@]45C[C@@]35CC[C@]21C)C(C)(C)O (stereo partly drawn) [drawing 1289]
6. CC(C)CC(=O)OC(C1CC(C)C2C(O1)C(O)C1(C)C3CCC4C(C)(C)C(OC5CN(C6COC6)CCO5)CCC45CC35CCC21C)C(C)(C)O (stereo not drawn)

*A*
1: 5.00 to 6.00; 2: < 5.00; 3: < 5.00; 4: 5.00 to 6.00; 5: 5.00 to 6.00; 6: 5.00 to 6.00

These measurements were taken from patent US20110251379A1.
